system: SK-OV-3 ovarian; assay: NCI tumour cell line growth inhibition, 48 h; in the data active = GI50 below about 0.43 µM; inactive = the rest
// allowed return values: label 1 (active), label 0 (inactive)

Cc1ccc(S(=O)(=O)Oc2ccccc2-c2ccccc2)cc1 ... label 0
CCC(=O)Oc1cc(/C=C/C(=O)O[C@H]2C[C@H]3CN4CCc5c([nH]c6cc(OC)ccc56)[C@@H]4C[C@@H]3[C@@H](C(=O)OC)[C@@H]2OC)ccc1OC ... label 0
COc1cc2c3c(n(CCCNCCCNCCCn4c5c(c6cc(OC)c(OC)cc6c4=O)C(=O)c4ccccc4-5)c(=O)c2cc1OC)-c1ccccc1C3=O ... label 0
O=C(O)[C@@H]1CCCN1Cc1cc2cc3c(cc2c2cc(OCc4ccccc4)ccc12)OCO3 ... label 0
Cn1ccnc1C(=O)/C=C/c1ccc(C(=O)Nc2ccccc2F)cc1 ... label 0

Prompt: Answer briefly: the call reported for "COC(=O)N1c2ccc3c(nc(Cc4ccccc4)n3[C@H]3CCC[C@H](C(=O)O)C3)c2CC[C@@H]1C" in this assay.
Completion: label 0

Prompt: // return assay outcome for "O=c1cc(N2CCOCC2)oc2c(-c3ccc4c(c3)OCCO4)csc12"
Completion: label 1

Prompt: Recorded call for "O=C(Nc1ccc(-n2ccc3c(NC(=O)c4ccccc4)nccc32)cc1)c1cccc(C(F)(F)F)c1" ?
Completion: label 0
